# System: THRa:RXRa (NR concentration 90 nM, RXRa partner concentration 90 nM)
# test_method_notes: PBM binding z-score (relative to random genomic background probes); higher = stronger binding; sequences stand for … in GC…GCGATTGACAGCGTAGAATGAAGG
Answer false (0) if PBM binding z-score is under 1, and true (1) if it is 1 or more.

Solved entries:
>>> class("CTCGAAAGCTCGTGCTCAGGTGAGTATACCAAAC")
"false (0)"
>>> class("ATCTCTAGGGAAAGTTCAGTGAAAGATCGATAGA")
"false (0)"
>>> class("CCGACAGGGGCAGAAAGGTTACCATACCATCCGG")
"true (1)"

Exam item: In plain terms: is recorded PBM binding z-score at least 1 for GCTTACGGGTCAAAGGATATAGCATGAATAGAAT ?
Marked response: true (1)

Exam item: In plain terms: is recorded PBM binding z-score at least 1 for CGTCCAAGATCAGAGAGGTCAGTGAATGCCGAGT ?
Marked response: true (1)

Exam item: In plain terms: is recorded PBM binding z-score at least 1 for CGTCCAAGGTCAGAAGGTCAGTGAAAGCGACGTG ?
Marked response: true (1)

The values you see were collected from the supplement of paper PMC6555819.
